Origin of values: patent US20210040232A1

tgt: T1, soluble human CTLA-4 expressed with a C-terminal myc-myc-polyhistidine tag (human)
T1 construct: soluble protein; also called hCTLA-4.mmh; hCTLA4.mmh
assay: SPR, mAb capture, 25 C
Measured kon accompanies every entry in the list below.
Express the result in M⁻¹ s⁻¹ but write the number alone.

Worked examples follow.
H1H19273P (antibody, human IgG1, V domains shown) VH: QITLKESGPTLVKPTQTLTLTCTFSGFSLSTSGVGVGWIRQSPGRALEWLALIYWNDHERYSPSLKSRLTITKDTSKNLVVLAMANMDPVDTATYFCAHRNIEYRRSYFFDYWGQGTLVTVSS VL: DIQMTQSPSSVSASVRDRVTVTCRASQDINNWLAWYQQKPGKAPKLLIYAASSLQSGVPSRFSGSGSGTDFTLTISSLQPEDFATYYCQQANTFPFTFGPGTKVDIK    374000
H1H19303P (antibody, human IgG1, kappa, V domains shown, also called REGN4659) VH: EVQLVESGGGLVQPGGSLRLSCAASGFTFSNYEMSWVRQAPGKGLEWVSSIRTSGTTKYYADSMKGRFTISRDNAKNSLYLQMNSLRAEDTAVYYCAGGGTFLHYWGQGTLVTVSS VL: DIQMTQSPSSVSASVGDRVTITCRASQGIASYLAWYQQKPGKAPKLLIYAASSLQTGVPSRFSGSGYGTDFTLTISSLQPEDFATYYCQQAKSFPMYTFGQGTKLEIKR    121000

Turning now to a further binder:
[Q] Request the reported kon associated with H1H20386N (antibody, human IgG1, V domains shown, here with human IgG1 Fc (H1H)) VH: QVQLVESGGGVVQPGRSLRLSCAASGFTVNRYGIHWVRQAPGKGLEWVAVTWYDGRNKYFADSVKGRFSFSRDSSTNTLYLQMNSLRAEDTAVYYCARGGLFGYFDYWGQGTLVTVSS VL: EIVLTQSPDTLSLSPGERATLSCRASQSVAGSYLAWYQQKPGQAPRLLIYGASSRATGIPDRFSGSGSGTDFTLTISRLEPEDFAVYYCQQYGTSPWTFGQGTKVEIT
[A] 185000
